Sourced from PubChem BioAssay (NCI)

growth values for the compounds below.
# Tested on: K-562 leukemia
# PROCEDURE_DETAILS: NCI-60 one-dose screen, 48 h (100 = growth as untreated, 0 = no growth, -100 = all killed)
# CONDITION_NOTES: 10 µM unless noted
About 83,000 compounds went through this panel and 20% of them were active in at least one assay; those are over-represented in the sample as a whole.
// return numeric value only (unit: %, not printed)

Illustrative cases are given below, each with its answer.
COMPOUND: CCOC(=O)c1cnc2c(OC)ccc(OC)c2c1Cl
ENDPOINT_UNIT: %
READOUT_NUMBER: 116
//
COMPOUND: Cc1cn(-c2cc(C(=O)Nc3cccc(-n4ccc5c(NC(=O)c6ccccc6)nccc54)c3)cc(C(F)(F)F)c2)cn1
ENDPOINT_UNIT: %
READOUT_NUMBER: 4.74
//
COMPOUND: O=C(c1cc(-c2ccc(Cl)cc2)nc2ccccc12)N1N=C(c2ccccc2)CC1c1cc(-c2ccccc2)nn1-c1ccccc1 (centres undefined)
ENDPOINT_UNIT: %
READOUT_NUMBER: 63.9

Kindly note the recorded growth for O=C(O)c1cc2ccccc2cc1Nc1ccccc1 , which is 98.3

Kindly note the recorded growth for OC[C@@H](O)C(O[C@@H]1O[C@H](CO)[C@H](O)[C@H](O)[C@H]1O)[C@H](O)[C@@H](O)CO (some centres undefined) , which is 104

Kindly note the recorded growth for COc1ccccc1NC(=O)COc1ccc(/C=C2/Oc3cc4occc4c(OC)c3C2=O)cc1OC , which is 99.4

Kindly note the recorded growth for COc1ccc(C2=NN(C(=O)COc3ccc(Cl)cc3)C(O)(c3cc(F)c(Cl)cc3Cl)C2)cc1 (centres undefined) , which is 82.4

Kindly note the recorded growth for CCCC(=O)Oc1ccc(/C(=C(\C)c2ccc(OC)cc2)c2ccc(OCCN3CCCCC3)cc2)cc1 , which is 21.9

Kindly note the recorded growth for CCCCOc1nc2ccc(Cl)cc2cc1/C=C/C(=O)/C=C/c1ccc(Cl)cc1 , which is 57
